Test: Pharmacokinetic study in vivo (plasma, LC–MS, noncompartmental)
Conditions: both sexes, Sprague-Dawley, rat, rats, oral 10 mg/kg, read-out: MRT0–t
Metric: MRT last
Don't forget the unit after the value.

Field MRT last (entry O=C(/C=C/c1ccc(O)c(O)c1/C=C/c1ccc(O)c(O)c1)O[C@H](Cc1ccc(O)c(O)c1)C(=O)O ) reads 2.33 h

---

Assay: Pharmacokinetic study in vivo (plasma, LC–MS, noncompartmental)
Details: both sexes, Sprague-Dawley, rat, po, 10 mg/kg, rats, oral 10 mg/kg, read-out: Tmax
Metric: Tmax (h)
Report the value in h with no unit label.

Field Tmax (entry O=C(/C=C/c1ccc(O)c(O)c1/C=C/c1ccc(O)c(O)c1)O[C@H](Cc1ccc(O)c(O)c1)C(=O)O ) reads 1
